// reported TR_FRET EKI BCLxL/WT selectivty ratio for each item listed
Biological target: BCLXL WT (Homo sapiens (Human), UniProt Q07817)
Sequence (Q07817 other isoform, or with tags, fused parts or gaps): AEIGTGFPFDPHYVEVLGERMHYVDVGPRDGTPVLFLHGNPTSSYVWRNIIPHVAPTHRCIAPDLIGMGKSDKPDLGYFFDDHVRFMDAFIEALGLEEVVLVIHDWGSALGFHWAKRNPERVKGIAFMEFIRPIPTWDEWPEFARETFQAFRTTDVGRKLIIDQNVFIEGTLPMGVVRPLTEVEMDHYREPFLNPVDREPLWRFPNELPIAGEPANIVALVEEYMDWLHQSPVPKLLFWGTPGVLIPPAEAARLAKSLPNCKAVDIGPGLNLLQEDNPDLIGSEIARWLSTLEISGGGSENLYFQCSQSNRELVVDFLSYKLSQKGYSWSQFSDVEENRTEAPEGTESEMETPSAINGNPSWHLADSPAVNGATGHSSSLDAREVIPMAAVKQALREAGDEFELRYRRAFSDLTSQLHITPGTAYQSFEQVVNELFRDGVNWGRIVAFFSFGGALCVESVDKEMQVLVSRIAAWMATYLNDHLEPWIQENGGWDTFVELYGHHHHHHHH
Assay: TR-FRET competitive binding assay, BCLXL WT
Settings: ratio Ki BCLxL / Ki BCL2 WT

molecule	TR_FRET EKI BCLxL/WT selectivty ratio
Cc1c(C(=O)N(c2ccc(O)cc2)c2cc(C#N)n(C(F)F)c2C)cc(-c2cc3c(cc2C(=O)N2Cc4ccccc4C[C@H]2CN2CC4(CCC4)C2)CN(C(=O)Cc2ccc(OCCC4CCOCC4)cc2)CC3)n1C [Example 180]	252.5
Cc1c(N(C(=O)c2cc(-c3cc4c(cc3C(=O)N3Cc5ccccc5C[C@H]3CN3CCCCC3)CN(C(=O)Cc3ccc(OCCN5CCN(CCF)CC5)cc3)CC4)n(C)c2C)c2ccc(O)cc2)cc(C#N)n1C [Example 122]	69.8
Cc1c(N(C(=O)c2cc(-c3cc4c(cc3C(=O)N3Cc5ccccc5C[C@H]3CN3CCCCC3)CN(C(=O)Cc3ccc(CCN5CCC(F)(F)CC5)cc3)CC4)n(C)c2C)c2ccc(O)cc2)cc(C#N)n1C [Example 131]	37.8
Cc1cc(OCCN2CCOCC2)ccc1CC(=O)N1CCc2cc(-c3cc(C(=O)N(c4ccc(O)cc4)c4cc(C#N)n(C)c4C)c(C)n3C)c(C(=O)N3Cc4ccccc4C[C@H]3CN3CCCCC3)cc2C1 [Example 113]	69.2
Cc1c(C(=O)N(c2ccc(O)cc2)c2ccc3c(cnn3C)c2)cc(-c2cc3c(cc2C(=O)N2Cc4ccccc4C[C@H]2C)CN(C(=O)Cc2ccc(OCCN4CCOCC4)cc2)CC3)n1C [Example 90]	18.0
Cc1c(C(=O)N(c2ccc(O)cc2)c2cnn(CC(C)C)c2)cc(-c2cc3c(cc2C(=O)N2Cc4ccccc4C[C@H]2C)CN(C(=O)Cc2ccc(OCCN4CCOCC4)cc2)CC3)n1C [Example 144]	77.0
Cc1c(N(C(=O)c2cc(-c3cc4c(cc3C(=O)N3Cc5ccccc5C[C@H]3C)CN(C(=O)Cc3ccc(OCCN(C)C5CC5)cc3)CC4)n3c2CCCC3)c2ccc(O)cc2)cc(C#N)n1C [Example 35]	10.0
Cc1c(N(C(=O)c2cc(-c3cc4c(cc3C(=O)N3Cc5ccccc5C[C@H]3C)CN(C(=O)Cc3ccc(OCCN5CCC(F)(F)C5)cc3)CC4)n(C)c2C)c2ccc(O)cc2)cc(C#N)n1C [Example 50]	22.3
Cc1c(N(C(=O)c2cc(-c3cc4c(cc3C(=O)N3Cc5ccccc5C[C@H]3CN3CC5(CC5)C3)CN(C(=O)Cc3ccc(OCCN5CCOCC5)cc3F)CC4)n(C)c2C)c2ccc(O)cc2)cc(C#N)n1C [Example 145]	39.3
Cc1c(N(C(=O)c2cc(-c3cc4c(cc3C(=O)N3Cc5ccccc5C[C@H]3CN3CCCCC3)CN(C(=O)Cc3ccc(OCCN5CCOCC5)cc3)CC4)n(C)c2C)c2ccc(O)cc2)cc(C#N)n1C [Example 67]	68.4
Cc1c(C(=O)N(c2ccc(O)cc2)c2cc(C#N)n(C(F)F)c2C)cc(-c2cc3c(cc2C(=O)N2Cc4ccccc4C[C@H]2CN2CCCCC2)CN(C(=O)Cc2ccc(OCCN4CCOCC4)cc2F)CC3)n1C [Example 78]	134.0
Cc1c(N(C(=O)c2cc(-c3cc4c(cc3C(=O)N3Cc5ccccc5C[C@H]3CN3CCCCC3)CN(C(=O)Cc3ccc(OCCC5CCOCC5)nc3)CC4)n(C)c2C)c2ccc(O)cc2)cc(C#N)n1C [Example 118]	52.5
CCn1cc(N(C(=O)c2cc(-c3cc4c(cc3C(=O)N3Cc5ccccc5C[C@H]3C)CN(C(=O)Cc3ccc(OCCN5CCOCC5)cc3)CC4)n(C)c2C)c2ccccc2)c(C)n1 [Example 210]	828.6
Cc1c(N(C(=O)c2cc(-c3cc4c(cc3C(=O)N3Cc5ccccc5C[C@H]3C)CN(C(=O)Cc3ccc(N5CCC(N6CCOCC6)C5)cc3)CC4)n(C)c2C)c2ccc(O)cc2)cc(C#N)n1C (single isomer, unassigned) [Example 63]	15.5
Cc1c(N(C(=O)c2cc(-c3cc4c(cc3C(=O)N3Cc5ccccc5C[C@H]3CN3CCC5(CC3)CC5)CN(C(=O)Cc3ccc(OCCN5CCOCC5)cc3F)CC4)n(C)c2C)c2ccc(O)cc2)cc(C#N)n1C [Example 126]	64.2
Cc1c(N(C(=O)c2cc(-c3cc4c(cc3C(=O)N3Cc5ccccc5C[C@H]3CN3CCCCC3)CN(C(=O)Cc3ccc(OCCN5CCOC(C)C5)cc3F)CC4)n(C)c2C)c2ccc(O)cc2)cc(C#N)n1C (single isomer, unassigned) [Example 109]	90.7
Cc1c(N(C(=O)c2cc(-c3cc4c(cc3C(=O)N3Cc5ccccc5C[C@H]3CN3CCCCC3)CN(C(=O)Cc3ccc(OCCN5CCN(C)CC5)cc3)CC4)n(C)c2C)c2ccc(O)cc2)cc(C#N)n1C [Example 119]	56.4
Cc1c(C(=O)N(c2ccccc2)c2ccnn2C)cc(-c2cc3c(cc2C(=O)N2Cc4ccccc4C[C@H]2C)CN(C(=O)Cc2ccc(OCCN4CCOCC4)cc2)CC3)n1C [Example 220]	325.6
Cc1c(N(C(=O)c2cc(-c3cc4c(cc3C(=O)N3Cc5ccccc5C[C@H]3C)CN(C(=O)C(F)(F)c3ccc(N5CCN(C)CC5)cc3)CC4)n(C)c2C)c2ccc(O)cc2)cc(C#N)n1C [Example 26]	21.1
